Origin of measurements: patent US20130012436A1

Target: T1, human IL-23 (human, UniProt Q9NPF7 20-189; P29460 23-328)
T1 sequence (looked up) 1: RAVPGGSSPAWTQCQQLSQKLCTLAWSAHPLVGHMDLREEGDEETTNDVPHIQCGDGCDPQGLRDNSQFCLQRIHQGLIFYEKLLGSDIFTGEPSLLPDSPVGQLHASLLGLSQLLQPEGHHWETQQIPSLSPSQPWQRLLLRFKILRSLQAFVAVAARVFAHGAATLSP
T1 sequence (looked up) 2: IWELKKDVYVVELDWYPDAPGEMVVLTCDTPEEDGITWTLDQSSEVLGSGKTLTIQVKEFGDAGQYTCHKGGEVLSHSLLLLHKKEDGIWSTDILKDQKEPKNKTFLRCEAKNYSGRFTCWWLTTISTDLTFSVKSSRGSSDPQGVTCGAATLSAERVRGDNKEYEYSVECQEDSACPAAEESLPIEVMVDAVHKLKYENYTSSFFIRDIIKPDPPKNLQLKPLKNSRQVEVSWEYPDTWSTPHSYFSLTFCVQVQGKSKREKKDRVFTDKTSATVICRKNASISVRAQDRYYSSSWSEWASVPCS
Test: cell-based or functional assay
Observable: Kit 225 pSTAT3 IC50 (nM)

Consider the reported Kit 225 pSTAT3 IC50 (nM) for these binders:
1572G06 (designed binder, captured by anti-His mAb) MGVSDVPRDLEVVAATPTSLLISWGHYPLHVRYYRITYGETGGNSPVQEFTVPRYKYTATISGLKPGVDYTITVYAVTYYAQENYKEIPISINYRTEIDKPSQHHHHHH | 0.05
1490C07 (designed binder, captured by anti-His mAb) MGVSDVPRDLEVVAATPTSLLISWGHYPLHVRYYRITYGETGGNSPVQEFTVPSNRYTATISGLKPGVDYTITVYAVTYYNEADYSQIPISINYRTEIDKPSQHHHHHH | 5.6
1550C05 (designed binder, captured by anti-His mAb) MGVSDVPRDLEVVAATPTSLLISWGHYPMHVRYYRITYGETGGNSPVQEFTVPPRRYTATISGLKPGVDYTITVYAVTYYNEADYSQIPISINYRTEIDKPSQHHHHHH | 16.8
1571F10 (designed binder, captured by anti-His mAb) MGVSDVPRDLEVVAATPTSLLISWGHYPLHIRYYRITYGETGGNSPVQEFTVPSRYHTATISGLKPGVDYTITVYAVTYYEQVEYREIPISINYRTEIDKPSQHHHHHH | 0.1
1490H06 (designed binder, captured by anti-His mAb) MGVSDVPRDLEVVAATPTSLLISWGHYPLHIRYYRITYGETGGNSPVQEFTVPRQKYTATISGLKPGVDYTITVYAVTYYNEADYSQIPISINYRTEIDKPSQHHHHHH | 2.3
1571G04 (designed binder, captured by anti-His mAb) MGVSDVPRDLEVVAATPTSLLISWGHYPLHVRYYRITYGETGGNSPVQEFTVPPRSHTATISGLKPGVDYTITVYAVTYYAQENYKEIPISINYRTEIDKPSQHHHHHH | 0.1
1438D01 (designed binder) MGVSDVPRDLEVVAATPTSLLISWGHYPMHVRYYRITYGETGGNSPVQEFTVPNRAHTATISGLKPGVDYTITVYAVTYYNEADYSQIPISINYRTEIDKPSQHHHHHH | 11.4
1572H05 (designed binder, captured by anti-His mAb) MGVSDVPRDLEVVAATPTSLLISWGHYPLHIRYYRITYGETGGNSPVQEFTVPRSKYTATISGLKPGVDYTITVYAVTYYEQVEYREIPISINYRTEIDKPSQHHHHHH | 0.01
1571G06 (designed binder, captured by anti-His mAb) MGVSDVPRDLEVVAATPTSLLISWGHYPLHLRYYRITYGETGGNSPVQEFTVPRTKYTATISGLKPGVDYTITVYAVTYYKEADYSQIPISINYRTEIDKPSQHHHHHH | 0.3
1437G04 (designed binder, captured by anti-His mAb) MGVSDVPRDLEVVAATPTSLLISWGHYPLHVRYYRITYGETGGNSPVQEFTVPYYHYTATISGLKPGVDYTITVYAVTYYNEADYSQIPISINYRTEIDKPSQHHHHHH | 3.3

(P) 1434A08 (designed binder) MGVSDVPRDLEVVAATPTSLLISWGHYPMHVRYYRITYGETGGNSPVQEFTVPHRTHTATISGLKPGVDYTITVYAVTYYNEADYSQIPISINYRTEIDKPSQHHHHHH
(Q) 1486G03 (designed binder, captured by anti-His mAb) MGVSDVPRDLEVVAATPTSLLISWGHYPMHVRYYRITYGETGGNSPVQEFTVPSRYYTATISGLKPGVDYTITVYAVTYYNEADYSQIPISINYRTEIDKPSQHHHHHH
// query Which shows the larger Kit 225 pSTAT3 IC50 (nM) value: P or Q ? Record your answer as the label of the chosen record.
// result P

(a) 1550 E03 (designed binder, captured by anti-His mAb) MGVSDVPRDLEVVAATPTSLLISWGHYPLHIRYYRITYGETGGNSPVQEFTVPRMRHTATISGLKPGVDYTITVYAVTYYSEELYKYIPISINYRTEIDKPSQHHHHHH
(b) 1572C09 (designed binder, captured by anti-His mAb) MGVSDVPRDLEVVAATPTSLLISWGHYPMHIRYYRITYGETGGNSPVQEFTVPTPKHTATISGLKPGVDYTITVYAVTYYNEADYSQIPISINYRTEIDKPSQHHHHHH
// query Select the item with the higher value of Kit 225 pSTAT3 IC50 (nM) from the options a and b listed. Give the chosen item's label as your response.
// result a
(a: 5.3 nM, b: 0.5 nM)
